B1: Flagellar motor switch protein FliM (Escherichia coli (strain K12)), P06974 (parent)
chain: MGDSILSQAEIDALLNGDSEVKDEPTASVSGESDIRPYDPNTQRRVVRERLQALEIINERFARHFRMGLFNLLRRSPDITVGAIRIQPYHEFARNLPVPTNLNLIHLKPLRGTGLVVFSPSLVFIAVDNLFGGDGRFPTKVEGREFTHTEQRVINRMLKLALEGYSDAWKAINPLEVEYVRSEMQVKFTNITTSPNDIVVNTPFHVEIGNLTGEFNICLPFSMIEPLRELLVNPPLENSRNEDQNWRDNLVRQVQHSQLELVANFADISLRLSQILKLNPGDVLPIEKPDRIIAHVDGVPVLTSQYGTLNGQYALRIEHLINPILNSLNEEQPK
partner: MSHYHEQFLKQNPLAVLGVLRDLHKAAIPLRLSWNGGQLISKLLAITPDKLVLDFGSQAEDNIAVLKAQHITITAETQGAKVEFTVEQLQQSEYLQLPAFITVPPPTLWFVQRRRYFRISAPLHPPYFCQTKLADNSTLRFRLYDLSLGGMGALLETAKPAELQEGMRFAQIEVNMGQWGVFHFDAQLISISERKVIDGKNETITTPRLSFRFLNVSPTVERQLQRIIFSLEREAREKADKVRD

# Variants of: B1
# Test Context: with ycgr_ecoli ycgR
Assay Metric: effect of a mutation on the interaction

// solved cases for effect of a mutation on the interaction follow
E176R    decreasing interaction
D167R    decreasing interaction
L160E    disrupting interaction
R156E    disrupting interaction
N155E    decreasing interaction

Now take the following variant into account.
Exercise: So what's the measured effect of a mutation on the interaction for this one? V153D
Solution: decreasing interaction
